Origin of measurements: PubChem BioAssay

# Assay Summary: blockers of RIG-like receptor reporter activation – cell-based, Sendai virus stimulus, luciferase, 10K MLSCN set, TLR/RLR signaling modifier project, primary screen (AID 602276);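 also: firefly luciferase from ISG56 promoter only with Renilla not read in this screen; 0% = Sendai virus plus DMSO and 100% = medium plus DMSO without virus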
# Test Settings: HEK293 RL24 IRF3 luciferase reporter, at 10 µM, stronger effect = higher value
Reported inhibition is given for each of the following compounds.

# Compound, inhibition [%]
measured = [
    ("CCCCNC(=O)CN(C1CCCCC1)S(C)(=O)=O", 16.6),
    ("O=C(COC(=O)C1=COCCO1)Nc1ccccc1Oc1ccccc1", 1.11),
    ("O=C(NCC1CCCO1)c1ccc(N2CCCCC2)nc1 (stereo not given)", -7.44),
    ("Cc1cccc(N2CCN(C(=O)Cn3ccc4ccccc4c3=O)CC2)c1C", -3.75),
    ("CCOc1ccccc1OCCn1nnc2ccccc21", 1.2),
    ("O=C(c1ccc(=O)[nH]c1)N(Cc1ccco1)C1(C(=O)NC2CCCC2)CCCCC1", -75.5),
    ("CCOC(=O)N1CCN(Cc2nc3c(c(=O)[nH]c(=O)n3C)n2Cc2cc(C)ccc2C)CC1", 19.2),
    ("Cc1cc(N2CCN(C)CC2)nc(N2CCOCC2)n1", -2.65),
    ("CC(C)CCN(C)C1CCN(S(=O)(=O)c2ccc(F)cc2)CC1", 10.6),
    ("Cc1nc(SCc2ccc(Br)cc2)[nH]c(=O)c1C", 3.06),
    ("CC1=C(C(=O)OC(C)C)C(c2cccc(F)c2)n2ncnc2N1 (stereo not given)", -7.13),
    ("CCn1c(SCC(N)=O)nnc1-c1ccc(S(=O)(=O)N2CCN(C)CC2)cc1", -10.4),
    ("COc1ccc(-c2nnc(SC(C)C(=O)Nc3nccs3)n2-c2ccccc2)cc1OC (stereo not given)", -14.8),
    ("O=C(CN1C(=O)c2ccccc2C1=O)Nc1ccc(S(=O)(=O)NCC2CCCO2)cc1 (stereo not given)", -1.96),
    ("c1ccc(Cn2nnc3c(N4CCC5(CC4)OCCO5)ncnc32)cc1", 3.41),
    ("COc1ccc(C(=O)CSc2nnc(-c3ccc(C)cc3)o2)cc1", -16.3),
    ("Cc1cccn2c(=O)c3cc(C(=O)N4CCCc5ccccc54)n(C)c3nc12", 6.77),
    ("COc1ccccc1CN1C(=O)CCC1(C)C(=O)NC1CCCCCC1 (stereo not given)", 0.126),
    ("O=S(=O)(c1ccc(Br)s1)N1CCCCC1", 5.16),
    ("CCCc1cn(S(=O)(=O)c2ccc(OC)cc2OC)nc1N", -0.283),
]
